Reported values of IC50 for individual entries
- system-under-test: Purified human HSD1 (Homo sapiens, UniProt P28845)
- Sequence (P28845 whole entry): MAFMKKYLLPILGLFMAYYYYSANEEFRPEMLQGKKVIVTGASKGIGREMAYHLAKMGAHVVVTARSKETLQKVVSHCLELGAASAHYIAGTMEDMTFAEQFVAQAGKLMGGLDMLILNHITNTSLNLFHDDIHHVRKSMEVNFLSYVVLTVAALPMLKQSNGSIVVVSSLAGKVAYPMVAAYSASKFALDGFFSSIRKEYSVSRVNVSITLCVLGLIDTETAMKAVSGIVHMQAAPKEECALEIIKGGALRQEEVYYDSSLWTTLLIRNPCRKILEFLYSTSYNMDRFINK
State the result as a value with its unit after it.

Answered examples (2):
O=C(c1csc(-c2cccc(OCc3ccccc3)c2)n1)N1CCCC2CCCCC21 (stereo not shown); 0.457 µM
O=C(c1csc(-c2ccc(-c3ccccc3)cc2)n1)N1CCCC2CCCCC21 (stereo not shown); 0.93 µM

// IC50 (Purified human HSD1 (Homo sapiens, UniProt P28845)) for COc1cccc(Cl)c1-c1nc(C(=O)N2CCCC3CCCCC32)cs1 (stereo not shown) = 1.5 µM

Noted IC50 for CC(=O)c1ccccc1-c1nc(C(=O)NC2CCCCCC2)cs1 , tested on Purified human HSD1 (Homo sapiens, UniProt P28845): 0.032 µM
